System: HT29 colon
Test: NCI-60 one-dose screen, 48 h
Conditions: 10 µM unless noted
Description: Growth inhibition of the HT29 human tumor cell line is measured as a screen for anti-cancer activity. Cells are grown in 96 well plates and exposed to the test compound for 48 hours. Compounds are tested at a single concentration, which is 10^-5 M for most compounds. The reported endpoint is percent growth (GI% or GIPRCNT), where numbers from 0 - 100% represent growth inhibition, and numbers from -100% - 0 represent cell death. For example, a value of 40 represents 60% growth inhibition. […]
The panel holds about 83,000 compounds, 20% with a hit somewhere; the sample as a whole holds those more often. Activity calls are given as the source filed them. Rule for the calls: active = growth percent below 10; inactive = the rest.
Answer with one of the outcomes given here: yes = active, no = inactive

Query block: Give the logged outcome of this assay for the following molecule: COc1ccccc1/C=N/NC1=NC2C(N1)N(C)C(=O)N2C (stereo not given)
Result block: no

Query block: Give the logged outcome of this assay for the following molecule: CC(=O)O[C@H]1CC[C@@]2(C)[C@@H](CC[C@@H]3[C@@H]2CC[C@@]2(C)[C@H]3CC[C@]2(O)C(C)=O)C1
Result block: no

Query block: Give the logged outcome of this assay for the following molecule: COc1ccccc1N1CCN(C(=O)c2ccc3nc(NC(=O)c4ccc(NCCc5ccccc5)c([N+](=O)[O-])c4)sc3c2)CC1
Result block: no

Query block: Give the logged outcome of this assay for the following molecule: CCCCCCCCOC(=O)c1ccc(O)c(OC)c1
Result block: no

Query block: Give the logged outcome of this assay for the following molecule: CCn1cc(C2NC(=O)c3ccccc3N2)c2cccc(C)c21 (stereo not given)
Result block: yes
